Provenance of the data: ChEMBL document CHEMBL1148378

Please respond with reported Ki for every item in the list.
Please reply with the bare figure in nM and do not write the unit itself.

Enter reported Ki observed with Stromelysin-3 (Mus musculus) for COc1ccccc1SCC(CP(=O)(O)C(Cc1ccccc1)NC(=O)OCc1ccccc1)C(=O)NC(Cc1c[nH]c2ccccc12)C(N)=O (configuration not stated)
Sequence (Q02853 whole entry): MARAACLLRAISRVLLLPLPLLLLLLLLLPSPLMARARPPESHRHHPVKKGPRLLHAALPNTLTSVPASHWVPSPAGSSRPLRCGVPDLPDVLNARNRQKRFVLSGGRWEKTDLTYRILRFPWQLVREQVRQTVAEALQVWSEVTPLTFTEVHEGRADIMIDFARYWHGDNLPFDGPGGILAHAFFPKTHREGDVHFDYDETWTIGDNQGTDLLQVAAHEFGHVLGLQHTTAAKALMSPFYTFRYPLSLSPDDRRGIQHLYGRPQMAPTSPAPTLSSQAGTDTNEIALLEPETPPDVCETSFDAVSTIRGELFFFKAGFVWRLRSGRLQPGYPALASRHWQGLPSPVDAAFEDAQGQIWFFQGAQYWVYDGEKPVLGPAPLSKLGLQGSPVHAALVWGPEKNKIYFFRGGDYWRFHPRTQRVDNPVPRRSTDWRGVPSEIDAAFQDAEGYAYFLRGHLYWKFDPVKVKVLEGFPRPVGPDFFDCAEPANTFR
230

Enter reported Ki observed with Stromelysin-3 (Mus musculus) for NC(=O)C(Cc1c[nH]c2ccccc12)NC(=O)C(CSc1ccccc1OC(F)(F)F)CP(=O)(O)C(Cc1ccccc1)NC(=O)OCc1ccccc1 (configuration not stated)
410

* * *

observable: pKi
Give only the number. pKi is defined as minus log10 of concentration in molar units.

Enter reported pKi observed with Collagenase 3 (Homo sapiens, UniProt P45452) for COc1ccccc1SCC(CP(=O)(O)C(Cc1ccccc1)NC(=O)OCc1ccccc1)C(=O)NC(Cc1c[nH]c2ccccc12)C(N)=O (stereo unspecified)
4.80

* * *

observable: pKi
Give only the number. pKi is defined as minus log10 of concentration in molar units.

Enter reported pKi observed with UniProt P08253 for NC(=O)C(Cc1c[nH]c2ccccc12)NC(=O)C(CSc1ccccc1Br)CP(=O)(O)C(Cc1ccccc1)NC(=O)OCc1ccccc1 (stereo unspecified)
Sequence (P08253 whole entry): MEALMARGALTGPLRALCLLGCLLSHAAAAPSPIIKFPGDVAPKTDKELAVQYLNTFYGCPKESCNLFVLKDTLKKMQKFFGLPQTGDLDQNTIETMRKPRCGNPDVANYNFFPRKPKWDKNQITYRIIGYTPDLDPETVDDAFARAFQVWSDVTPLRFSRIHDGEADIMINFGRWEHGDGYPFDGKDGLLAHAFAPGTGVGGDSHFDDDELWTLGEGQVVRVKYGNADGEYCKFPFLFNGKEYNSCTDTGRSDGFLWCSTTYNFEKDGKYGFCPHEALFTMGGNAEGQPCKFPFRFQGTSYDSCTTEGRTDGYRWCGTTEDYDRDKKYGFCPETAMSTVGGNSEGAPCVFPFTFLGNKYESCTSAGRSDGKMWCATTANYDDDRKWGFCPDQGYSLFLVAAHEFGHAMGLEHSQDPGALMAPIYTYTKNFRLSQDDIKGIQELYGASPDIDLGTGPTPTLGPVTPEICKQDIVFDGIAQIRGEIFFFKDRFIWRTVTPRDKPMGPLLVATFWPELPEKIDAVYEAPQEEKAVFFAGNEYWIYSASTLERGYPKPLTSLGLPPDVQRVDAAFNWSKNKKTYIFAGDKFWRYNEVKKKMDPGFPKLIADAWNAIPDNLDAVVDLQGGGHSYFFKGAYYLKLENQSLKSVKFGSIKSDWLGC
5.33

* * *

# target-of-assay: Matrix metalloproteinase-9 (Homo sapiens)
# Sequence (P14780 whole entry): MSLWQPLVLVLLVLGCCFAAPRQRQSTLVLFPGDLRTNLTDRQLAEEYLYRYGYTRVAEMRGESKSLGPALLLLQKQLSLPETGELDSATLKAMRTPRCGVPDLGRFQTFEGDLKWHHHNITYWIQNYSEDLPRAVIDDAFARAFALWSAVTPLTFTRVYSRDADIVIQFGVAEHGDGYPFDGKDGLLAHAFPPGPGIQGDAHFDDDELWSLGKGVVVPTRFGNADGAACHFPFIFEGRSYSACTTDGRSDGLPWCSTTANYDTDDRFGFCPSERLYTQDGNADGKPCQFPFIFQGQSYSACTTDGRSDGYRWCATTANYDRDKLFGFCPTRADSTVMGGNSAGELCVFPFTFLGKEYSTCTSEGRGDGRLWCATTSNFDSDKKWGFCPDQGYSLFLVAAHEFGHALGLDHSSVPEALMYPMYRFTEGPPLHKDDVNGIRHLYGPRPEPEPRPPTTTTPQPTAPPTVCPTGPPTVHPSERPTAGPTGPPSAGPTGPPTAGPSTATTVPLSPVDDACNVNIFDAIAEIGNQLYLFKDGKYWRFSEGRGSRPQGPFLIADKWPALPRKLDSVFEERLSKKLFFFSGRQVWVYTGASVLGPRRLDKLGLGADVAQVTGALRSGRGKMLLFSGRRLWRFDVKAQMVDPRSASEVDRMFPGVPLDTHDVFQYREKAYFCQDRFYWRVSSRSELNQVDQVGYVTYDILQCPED
# method-summary: Inhibition of Matrix metalloprotease-9
observable: pKi
Give only the number. pKi is defined as minus log10 of concentration in molar units.

Endpoint output: pKi of COc1ccccc1SCC(CP(=O)(O)C(Cc1ccccc1)NC(=O)OCc1ccccc1)C(=O)NC(Cc1c[nH]c2ccccc12)C(N)=O (stereo unspecified) . Value?
4.45

* * *

# target-of-assay: Matrix metalloproteinase-14 (Homo sapiens, UniProt P50281)
observable: Ki (µM)
Please reply with the bare figure in µM and do not write the unit itself.

Endpoint output: Ki of COc1ccccc1SCC(CP(=O)(O)C(Cc1ccccc1)NC(=O)OCc1ccccc1)C(=O)NC(Cc1c[nH]c2ccccc12)C(N)=O (stereo unspecified) . Value?
160
